- TARGET UNDER TEST: PKCa (Homo sapiens)
- ASSAY OVERVIEW: Kinase profiling PKCa
- Type: biochemical
- COND: 100 micromolar inhibitor concentration; 100 is no change
EXPERIMENTAL ENDPOINT: residual kinase activity, PKCa
Just the number, please, no unit after it.

// solved cases for residual kinase activity, PKCa follow
COc1ccc2sc(NC(=O)c3cccc(NC(C)=O)c3)nc2c1 [MS:LY-2-85] | 63
CC(=O)Nc1ccc(C(=O)Nc2nc3ccc(O)cc3s2)cc1 [Compound 03-74] | 92
O=C(Nc1nc2cc(O)ccc2s1)c1ccncc1 [Compound 03-11] | 91
O=C(Nc1nc2ccc(O)cc2s1)c1cccnc1 [Compound 08-44] | 67
O=C(Nc1nc2ccc(F)cc2s1)c1ccccc1 [Compound 03-92] | 96
O=C(Nc1nc2ccc(O)cc2s1)c1ccccc1 [Compound 03-60] | 97

Now turn to the next compound.
Provide the documented residual kinase activity, PKCa with PKCa (Homo sapiens) as the system for O=C(Nc1nc2cc(O)ccc2s1)c1ccccc1 [Compound 03-102]
72
